src = patent US12209071B2

Target: TrkC (Homo sapiens, UniProt Q16288)
Sequence (Q16288 32-839): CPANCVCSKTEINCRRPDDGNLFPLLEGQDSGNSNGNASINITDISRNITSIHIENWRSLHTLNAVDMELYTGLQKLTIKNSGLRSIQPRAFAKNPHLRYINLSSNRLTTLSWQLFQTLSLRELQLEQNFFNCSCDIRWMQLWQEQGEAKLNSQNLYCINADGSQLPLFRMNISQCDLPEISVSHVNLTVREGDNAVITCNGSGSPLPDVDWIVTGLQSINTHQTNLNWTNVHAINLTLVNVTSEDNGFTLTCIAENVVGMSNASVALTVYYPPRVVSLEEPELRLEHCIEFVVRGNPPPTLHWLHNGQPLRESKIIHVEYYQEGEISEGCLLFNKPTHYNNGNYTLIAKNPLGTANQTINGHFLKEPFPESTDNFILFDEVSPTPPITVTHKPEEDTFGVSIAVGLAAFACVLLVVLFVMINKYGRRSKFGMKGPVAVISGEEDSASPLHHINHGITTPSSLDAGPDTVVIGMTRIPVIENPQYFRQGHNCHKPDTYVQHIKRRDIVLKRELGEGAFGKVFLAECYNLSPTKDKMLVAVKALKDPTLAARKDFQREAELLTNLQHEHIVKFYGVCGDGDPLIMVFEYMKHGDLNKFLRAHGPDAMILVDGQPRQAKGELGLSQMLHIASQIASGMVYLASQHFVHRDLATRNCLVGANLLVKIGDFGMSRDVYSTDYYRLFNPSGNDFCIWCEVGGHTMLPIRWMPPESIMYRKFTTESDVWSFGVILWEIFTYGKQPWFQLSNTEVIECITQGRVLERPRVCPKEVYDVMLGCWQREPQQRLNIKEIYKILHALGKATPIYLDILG
Test: Enzyme Fragment Complementation cell-based assay, TrkC
Conditions: U2OS-cells over-expressing TrkC; ligand 10 ng/mL; 3 hours incubation
From the text: A high throughput cell-based screen has been used to identify positive modulators of TrkA, TrkB and TrkC. The screen involves the use of cell-based assay overexpressing TrkA, TrkB or TrkC. […] The assay uses Enzyme Fragment Complementation (EFC) technique, which is a proximity-based assay. […] The activation of the receptor is quantified by measuring the amount of active beta-galactosidase by its conversion of a non-luminescent substrate into a luminescent product. […]
Could you please mark Satisfied for values of EC50 below 500 nM and Not satisfied for values at or above it?

[
  {
    "molecule": "Cn1c(=O)[nH]c(=O)n(-c2ccc(Oc3ccccc3)c(OCC3COC3)c2)c1=O [Example 24]",
    "assayed_target": "TrkC (Homo sapiens, UniProt Q16288)",
    "category_label": "Satisfied"
  },
  {
    "molecule": "Cn1c(=O)[nH]c(=O)n(-c2ccc(Oc3ccccc3)c(Cl)c2)c1=O [Example 65]",
    "assayed_target": "TrkC (Homo sapiens, UniProt Q16288)",
    "category_label": "Satisfied"
  },
  {
    "molecule": "Cc1cn(Cc2ccccc2)c2ccc(-n3c(=O)[nH]c(=O)n(-c4ccccc4)c3=O)cc12 [Example 36]",
    "assayed_target": "TrkC (Homo sapiens, UniProt Q16288)",
    "category_label": "Not satisfied"
  },
  {
    "molecule": "Cn1c(=O)[nH]c(=O)n(-c2ccc(Oc3ccccc3)c(OC3CCCC3)c2)c1=O [Example 15]",
    "assayed_target": "TrkC (Homo sapiens, UniProt Q16288)",
    "category_label": "Not satisfied"
  },
  {
    "molecule": "Cn1c(=O)[nH]c(=O)n(-c2ccc(Oc3ccccc3)c(OC3CCOC3)c2)c1=O (centres unmarked) [Example 22]",
    "assayed_target": "TrkC (Homo sapiens, UniProt Q16288)",
    "category_label": "Not satisfied"
  },
  {
    "molecule": "Cc1ccc(-n2c(=O)[nH]c(=O)n(-c3ccc(Oc4ccccc4)c(C)c3)c2=O)cc1 [Example 41]",
    "assayed_target": "TrkC (Homo sapiens, UniProt Q16288)",
    "category_label": "Satisfied"
  },
  {
    "molecule": "COCCOc1cc(-n2c(=O)[nH]c(=O)n(C)c2=O)ccc1Oc1ccccc1 [Example 28]",
    "assayed_target": "TrkC (Homo sapiens, UniProt Q16288)",
    "category_label": "Not satisfied"
  }
]
